- Procedure Details: In vivo PK (cannulated rat, IV and PO)
- Cond: rat, plasma, po, 30 mg/kg, PO 30 mg/kg, mean of 3 rats; read-out: Cmax
Measured Attribute: Cmax (ng/mL)
Value expressed in ng/mL; do not type the unit.

Data request, read-out Cmax, for CC(Nc1ncnc2[nH]cnc12)c1nc2cccc(Cl)c2c(=O)n1-c1ccccc1 (stereo not shown) 5300

----------
Answer each item with its documented EC50.
- Target Or Test System: PI3K p110α (Mus musculus, UniProt P42337)
- Sequence (P42337 whole entry): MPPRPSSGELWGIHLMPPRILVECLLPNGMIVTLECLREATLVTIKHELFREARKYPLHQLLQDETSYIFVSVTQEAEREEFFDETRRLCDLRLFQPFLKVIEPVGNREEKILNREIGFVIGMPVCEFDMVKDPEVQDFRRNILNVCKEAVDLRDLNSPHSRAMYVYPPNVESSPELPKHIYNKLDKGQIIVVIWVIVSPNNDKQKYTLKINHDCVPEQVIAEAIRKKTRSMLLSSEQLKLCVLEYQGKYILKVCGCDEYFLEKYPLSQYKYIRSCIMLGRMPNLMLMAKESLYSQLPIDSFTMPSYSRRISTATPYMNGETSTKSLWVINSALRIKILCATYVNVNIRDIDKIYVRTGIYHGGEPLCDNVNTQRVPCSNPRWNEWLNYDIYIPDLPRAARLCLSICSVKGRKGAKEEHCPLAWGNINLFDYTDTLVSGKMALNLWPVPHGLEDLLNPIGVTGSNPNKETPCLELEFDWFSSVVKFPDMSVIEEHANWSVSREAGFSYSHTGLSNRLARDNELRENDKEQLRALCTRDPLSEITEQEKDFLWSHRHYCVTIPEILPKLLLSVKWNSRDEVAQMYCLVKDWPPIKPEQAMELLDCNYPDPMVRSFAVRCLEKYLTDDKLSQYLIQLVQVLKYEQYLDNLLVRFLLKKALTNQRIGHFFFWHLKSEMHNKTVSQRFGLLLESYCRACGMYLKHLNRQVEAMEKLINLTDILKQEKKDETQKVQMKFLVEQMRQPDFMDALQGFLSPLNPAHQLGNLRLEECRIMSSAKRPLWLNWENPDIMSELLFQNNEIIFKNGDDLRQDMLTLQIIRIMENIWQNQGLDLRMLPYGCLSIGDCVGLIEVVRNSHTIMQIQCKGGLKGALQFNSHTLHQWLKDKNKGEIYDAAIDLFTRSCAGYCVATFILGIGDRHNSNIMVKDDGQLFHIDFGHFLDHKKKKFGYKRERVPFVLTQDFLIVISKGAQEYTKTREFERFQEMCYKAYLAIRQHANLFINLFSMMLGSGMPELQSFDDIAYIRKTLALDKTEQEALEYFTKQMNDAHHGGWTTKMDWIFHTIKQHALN
- Sequence (P26450 whole entry partner): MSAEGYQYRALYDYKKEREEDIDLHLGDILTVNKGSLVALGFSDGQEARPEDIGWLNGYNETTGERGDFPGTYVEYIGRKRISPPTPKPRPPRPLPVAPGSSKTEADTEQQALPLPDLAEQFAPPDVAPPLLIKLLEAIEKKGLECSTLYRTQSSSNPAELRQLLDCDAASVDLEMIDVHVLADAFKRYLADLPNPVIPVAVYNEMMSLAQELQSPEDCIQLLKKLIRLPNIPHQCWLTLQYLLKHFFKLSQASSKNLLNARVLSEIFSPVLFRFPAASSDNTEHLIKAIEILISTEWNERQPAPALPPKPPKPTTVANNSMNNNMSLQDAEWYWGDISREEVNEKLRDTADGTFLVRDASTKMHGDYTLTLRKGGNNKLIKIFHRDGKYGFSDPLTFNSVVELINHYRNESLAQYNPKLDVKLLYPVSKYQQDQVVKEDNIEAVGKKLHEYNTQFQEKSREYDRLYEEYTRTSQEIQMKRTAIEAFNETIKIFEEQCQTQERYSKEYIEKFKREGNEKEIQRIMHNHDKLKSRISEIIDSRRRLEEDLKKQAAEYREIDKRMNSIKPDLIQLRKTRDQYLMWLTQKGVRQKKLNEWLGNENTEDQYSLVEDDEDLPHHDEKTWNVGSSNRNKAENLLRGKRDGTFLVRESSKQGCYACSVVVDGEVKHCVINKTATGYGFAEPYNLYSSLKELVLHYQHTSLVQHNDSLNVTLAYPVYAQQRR
- Procedure Details: Cellular p110α signaling: PDGF-stimulated MEFs, pAkt Western blot
- Format: cell-based, murine
- Cond: cellular assay, MEFs, PDGF; read-out: EC50 p110α

Entry under review: `C[C@H](Nc1ncnc2[nH]cnc12)c1nc2ccc(F)cc2c(=O)n1-c1ccccc1` . Reported EC50? > 20 µM

Looking for the measured EC50 of `CC[C@H](Nc1ncnc2[nH]cnc12)c1nc2cccc(F)c2c(=O)n1-c1ccccc1` , can you help? > 20 µM

----------
- Test system: MDA-MB-468
- Procedure Details: pAkt pathway inhibition, MDA-MB-468
- Assay type: cell-based
- Cond: Homo sapiens; MDA-MB-468, Breast
Measured Attribute: EC50 (nM)
Quick reminder: number only, in nM, skip the unit.

Form field - read-out: EC50; system: MDA-MB-468; submitted item: CC(Nc1ncnc2[nH]cnc12)c1nc2cccc(Cl)c2c(=O)n1-c1ccccc1 (stereo not shown) 56

----------
- Procedure Details: In vivo PK (cannulated rat, IV and PO)
- Cond: rat, plasma, po, 30 mg/kg, PO 30 mg/kg, mean of 3 rats
Measured Attribute: AUC(0-t) (ng·h/mL)
Kindly answer with a numeric value in ng·h/mL, unit omitted.

Can you look up the measured AUC(0-t) of CC(Nc1ncnc2[nH]cnc12)c1nc2cccc(Cl)c2c(=O)n1-c1ccccc1 (stereo not shown) [Compound A] for me? 40000

----------
- Tested on: BT549
- Procedure Details: pAkt pathway inhibition, BT549
- Type: cell-based
- Cond: Homo sapiens, BT-549; BT549, Breast
Measured Attribute: EC50 (nM)
Respond with the bare value in nM.

Returns the measured EC50 for the input molecule. Input: CC(Nc1ncnc2[nH]cnc12)c1nc2cccc(Cl)c2c(=O)n1-c1ccccc1 (stereo not shown) 34

----------
- Test system: T47D
- Procedure Details: pAkt pathway inhibition, T47D
- Type: cell-based
- Cond: Homo sapiens, Breast
Measured Attribute: EC50

May I ask what EC50 has been recorded for CC(Nc1ncnc2[nH]cnc12)c1nc2cccc(Cl)c2c(=O)n1-c1ccccc1 (stereo not shown) ? 502 nM

----------
- Procedure Details: Dog PK
- Type: in vivo
- Cond: plasma, IV 1 mg/kg
Measured Attribute: clearance
State the value, then name its unit.

Look up clearance: CC(Nc1ncnc2[nH]cnc12)c1nc2cccc(Cl)c2c(=O)n1-c1ccccc1 (stereo not shown) 6.08 mL/min/kg

----------
- Procedure Details: In vivo PK (cannulated rat, IV and PO)
- Cond: rat, plasma, po, 30 mg/kg, PO 30 mg/kg, individual rats; read-out: T½ (converted)
Measured Attribute: half-life
Record the result as number plus unit.

Entry under review: CC(Nc1ncnc2[nH]cnc12)c1nc2cccc(Cl)c2c(=O)n1-c1ccccc1 (stereo not shown) . Reported half-life? 136 min
